The reader will find reported Residual trypsin activity (%) values listed item by item below.
- Measured On: bovine trypsin (bovine, UniProt P00760 24-246)
- Sequence (P00760 24-246): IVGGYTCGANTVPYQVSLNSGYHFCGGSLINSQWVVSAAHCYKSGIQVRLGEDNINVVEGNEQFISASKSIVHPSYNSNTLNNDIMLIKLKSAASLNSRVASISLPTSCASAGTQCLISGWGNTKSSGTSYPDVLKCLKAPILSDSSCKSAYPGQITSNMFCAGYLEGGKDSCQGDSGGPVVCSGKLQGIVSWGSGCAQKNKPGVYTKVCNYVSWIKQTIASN
- Assay Procedure: trypsin (50 nM) BApNA hydrolysis, OD405; peptide at 0.98 µM
Bridge positions count the residues as written; N and C are the ends. Ends that are not written are not given here.

[[record]]
binder = "CGTATKSIPPICF (disulfide 1-12 (inferred), synthetic) [BT25]"
value_measured = "49.7%"

[[record]]
binder = "CGRSTKSIPPICF (disulfide 1-12 (inferred), synthetic) [BT47]"
value_measured = "0.2%"

[[record]]
binder = "CGRYTKSIPPICF (disulfide 1-12 (inferred), synthetic) [BT53]"
value_measured = "0.5%"

[[record]]
binder = "CGRQTKSIPPICF (disulfide 1-12 (inferred), synthetic) [BT54]"
value_measured = "0.1%"

[[record]]
binder = "CGRAAKSIPPICF (disulfide 1-12 (inferred), synthetic) [BT26]"
value_measured = "94.5%"


Data request: What value of measured Residual trypsin activity (%) is listed for CGRATKSIPPICF (disulfide 1-12 (inferred), synthetic) [BT9] ?
Data returned: -0.4%
